Below: a set of entries, each annotated with reported inhibition.
assay: reduction of Shn3 3'UTR firefly luciferase signal, primary screen, Schnurri-3 inhibitor project, cell-based, Clone20 osteoblasts, set 2 (AID 588674); conditions: Clone20 osteoblast Shn3 3'UTR firefly luciferase, 24 h; at 12.5 µM; hits give high values;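 further: 0% = median of neutral control wells and 100% = pilot-screen positive control compound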
Screen size: about 360,000 compounds; about 1,800 (0.5%) were called active. The sample as a whole holds a higher share of actives than the screen did.
reportedMetric: inhibition (%)

COc1ccc(-c2ccc(C(=O)NCCN3CCOCC3)c3occc23)c(C)c1: 12.3
COc1cc(SC)ccc1C(=O)NNC(=O)C1COc2ccccc2O1 (centres undefined): 4.8
O=C(NCC1CCCCC1)c1cc(S(=O)(=O)N2CCCCC2)ccc1N1CCOCC1: -9.53
CCOC(=O)/C(=C\c1ccc([N+](=O)[O-])cc1)C(=O)c1cc(C(C)=O)c(Nc2ccccc2)s1: 97.8

----------
Below: a set of entries, each annotated with reported inhibition.
assay: reduction of Shn3 3'UTR firefly luciferase signal, primary screen, Schnurri-3 inhibitor project, cell-based, Clone20 osteoblasts, set 2 (AID 588674); conditions: Clone20 osteoblast Shn3 3'UTR firefly luciferase, 24 h; at 12.5 µM; hits give high values;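 further: 0% = median of neutral control wells and 100% = pilot-screen positive control compound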
About 1,800 (0.5%) of roughly 360,000 compounds were called active. Many of the other results were omitted from the sample, so actives are more common in it than they were.
reportedMetric: inhibition (%)

O=[N+]([O-])c1c(NCCO)cc(Sc2nc3ccccc3s2)c2nonc12: 93.7
Cc1cc(-n2nc(C)cc2C)n2ncc(-c3ccccc3)c2n1: -43
CN(CC(=O)Nc1cccc(F)c1)C(=O)C1=COCCO1: -7.61
O=c1[nH]c2cccnc2n(CCNc2ncc(C(F)(F)F)cc2Cl)c1=O: 2.77
COc1ccccc1N1CCN(/N=C\C(Br)=C\c2ccccc2)CC1: 39.8
CC(=O)Nc1ccc(C=CC(=O)c2ccc([N+](=O)[O-])cc2)cc1: 9.91
CN(C)S(=O)(=O)c1ccc(C(=O)NCC(C)(C)N2CCOCC2)cc1: 23
O=C(CN1CCN(C(=O)C2CCCO2)CC1)Nc1c(Cl)cccc1Cl (stereo not given): 1.7
Cc1csc(NC(=O)CSc2nc(=O)cc(N)n2-c2ccc(F)cc2)n1: -11
C[C@H]1CN([C@@H](C)CO)C(=O)CCCn2cc(nn2)CO[C@@H]1CN(C)S(=O)(=O)c1cccs1: -17.2

----------
assay: reduction of Shn3 3'UTR firefly luciferase signal, primary screen, Schnurri-3 inhibitor project, cell-based, Clone20 osteoblasts, set 2 (AID 588674); details: Clone20 osteoblast Shn3 3'UTR firefly luciferase, 24 h; at 12.5 µM; hits give high values;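 further: 0% = median of neutral control wells and 100% = pilot-screen positive control compound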
The campaign covered roughly 360,000 compounds. About 1,800 (0.5%) were called active. The sample as a whole holds a higher share of actives than the screen did.
reportedMetric: inhibition (%)

CCS(=O)(=O)Nc1ccc(C(=O)NCCSc2ccccc2)cc1: -6.43
Oc1c(CN2CCCC2)cc(COCc2ccccc2)c2cccnc12: 86
C/C=C(/C)C(=O)O[C@@H]1c2cc3c(c4c2[C@@]2(CO4)C(=O)C(OC)=C(OC)C=C2C[C@@H](C)[C@H]1C)OCO3: -16.2
Cc1ccccc1NC(=O)Cn1cc(C(=O)C2CC2)c2ccccc21: 8.79

Data credit: PubChem BioAssay AID588674
